assay: Lipophilicity, log D of compound; type: physicochemical; conditions: octanol/water
Measured Endpoint: logD
Respond using a number only.

>>> df
                           structure_string  measured_endpoint  quantitative_result
0  CC(C)OC(=O)[C@H](C)N[P@](=O)(OC[C@H]1O[C@@H](n2ccc(=O)[nH]c2=O)[C@](C)(F)[C@@H]1O)Oc1ccccc1               logD                 3.02

Alright, here's another compound for you.
Incoming: Read the entry `CC(C)OC(=O)[C@H](C)N[P@](=O)(OC[C@H]1O[C@@H](n2ccc(=O)[nH]c2=O)[C@](Cl)(Br)[C@@H]1O)Oc1ccccc1` and write its reported logD.
Outgoing: 3.51

----------
test: Prodrug conversion in dog liver assessed as 1-((2R,3R,4R,5R)-3-bromo-3-chloro-4-hydroxy-5-(hydroxymethyl)tetrahydrofuran-2-yl)pyrimidine-2,4(1H,3H)-dione level at 5 mg/kg, po after 24 hrs; format: ADME, organism-based, Canis lupus familiaris; settings: in vivo
Measured Endpoint: Drug metabolism

Illustrative cases are given below, each with its answer.
                                   compound        result
0  CCOC(=O)[C@H](C)NP(=O)(OC[C@H]1O[C@@H](n2ccc(=O)[nH]c2=O)[C@](Cl)(Br)[C@@H]1O)Oc1ccccc1 (stereo partly drawn)  < 0.025 µg/g
1  CC(C)OC(=O)[C@H](C)N[P@@](=O)(OC[C@H]1O[C@@H](n2ccc(=O)[nH]c2=O)[C@](Cl)(Br)[C@@H]1O)Oc1ccccc1    0.009 µg/g
2  CCOC(=O)C(C)(C)NP(=O)(OC[C@H]1O[C@@H](n2ccc(=O)[nH]c2=O)[C@](Cl)(Br)[C@@H]1O)Oc1ccccc1 (stereo partly drawn)    0.192 µg/g
3  CC(C)OC(=O)[C@H](C)N[P@](=O)(OC[C@H]1O[C@@H](n2ccc(=O)[nH]c2=O)[C@](Cl)(Br)[C@@H]1OC(=O)[C@@H](N)C(C)C)Oc1ccccc1    0.029 µg/g
4  CC(C)C(=O)OC[C@H](C)NP(=O)(OC[C@H]1O[C@@H](n2ccc(=O)[nH]c2=O)[C@](Cl)(Br)[C@@H]1O)Oc1ccccc1 (stereo partly drawn)    0.006 µg/g
5  CC(C)OC(=O)C(C)(C)NP(=O)(OC[C@H]1O[C@@H](n2ccc(=O)[nH]c2=O)[C@](Cl)(Br)[C@@H]1O)Oc1ccccc1 (stereo partly drawn)     0.04 µg/g
6  CC(C)OC(=O)[C@H](C)N[P@](=O)(OC[C@H]1O[C@@H](n2ccc(=O)[nH]c2=O)[C@](Cl)(Br)[C@@H]1O)Oc1ccccc1    0.011 µg/g

Incoming: Tell me Drug metabolism reported for COCC(C)OC(=O)[C@H](C)NP(=O)(OC[C@H]1O[C@@H](n2ccc(=O)[nH]c2=O)[C@](Cl)(Br)[C@@H]1O)Oc1ccccc1 (stereo partly drawn)
Outgoing: 0.038 µg/g

----------
assay: Prodrug conversion in dog liver assessed as 2-((((2R,3R,4R,5R)-4-bromo-4-chloro-5-(2,4-dioxo-3,4-dihydropyrimidin-1(2H)-yl)-3-hydroxytetrahydrofuran-2-yl)methoxy)(hydroxy)phosphorylamino)-2-methylpropanoic acid level at 5 mg/kg, po after 4 hrs; assay type: ADME, organism-based, Canis lupus familiaris; settings: in vivo
# Drug metabolism listing for each entry below
Report field: quantity (unit follows the number).

Below, 2 molecules whose answers are already recorded.
>>> print(df.to_string())
                                   molecule      result
0  CC(C)OC(=O)[C@H](C)N[P@](=O)(OC[C@H]1O[C@@H](n2ccc(=O)[nH]c2=O)[C@](Cl)(Br)[C@@H]1OC(=O)[C@@H](N)C(C)C)Oc1ccccc1  0.359 µg/g
1  CCOC(=O)[C@H](C)NP(=O)(OC[C@H]1O[C@@H](n2ccc(=O)[nH]c2=O)[C@](Cl)(Br)[C@@H]1O)Oc1ccccc1 (stereo partly drawn)  0.357 µg/g

In the following, a different molecule is considered.
Incoming: Name the recorded Drug metabolism of the molecule listed here: CCOC(=O)C(C)(C)NP(=O)(OC[C@H]1O[C@@H](n2ccc(=O)[nH]c2=O)[C@](Cl)(Br)[C@@H]1O)Oc1ccccc1 (stereo partly drawn)
Outgoing: 0.232 µg/g

----------
Entries annotated with measured log10(Drug metabolism)
experiment: Prodrug conversion in human hepatocytes assessed as nucleotide triphosphate level at 100 uM after 4 hrs; assay type: ADME, cell-based, Hepatocyte
Log scale reminder: Drug metabolism in µM, then log10 taken.

Known log10(Drug metabolism) results, listed for orientation:
                                   molecule  quantitative_result
0  CCOC(=O)C(C)(C)NP(=O)(OC[C@H]1O[C@@H](n2ccc(=O)[nH]c2=O)[C@](Cl)(Br)[C@@H]1O)Oc1ccccc1 (some centres undefined)                 3.33
1  CCOC(=O)[C@H](C)N[P@@](=O)(OC[C@H]1O[C@@H](n2ccc(=O)[nH]c2=O)[C@](Cl)(Br)[C@@H]1O)Oc1ccccc1                 2.87
2  CC(C)OC(=O)[C@H](C)N[P@](=O)(OC[C@H]1O[C@@H](n2ccc(=O)[nH]c2=O)[C@](Cl)(Br)[C@@H]1O)Oc1ccccc1                 2.04
3  CC(C)OC(=O)[C@H](C)N[P@](=O)(OC[C@H]1O[C@@H](n2ccc(=O)[nH]c2=O)[C@](C)(F)[C@@H]1O)Oc1ccccc1 [SOFOSBUVIR]                 1.99
4  COCC(C)OC(=O)[C@H](C)NP(=O)(OC[C@H]1O[C@@H](n2ccc(=O)[nH]c2=O)[C@](Cl)(Br)[C@@H]1O)Oc1ccccc1 (some centres undefined)                 2.67
5  CC(C)OC(=O)[C@H](C)N[P@@](=O)(OC[C@H]1O[C@@H](n2ccc(=O)[nH]c2=O)[C@](Cl)(Br)[C@@H]1O)Oc1ccccc1                 2.03
6  CC(C)OC(=O)[C@H](C)N[P@](=O)(OC[C@H]1O[C@@H](n2ccc(=O)[nH]c2=O)[C@](Cl)(Br)[C@@H]1OC(=O)[C@@H](N)C(C)C)Oc1ccccc1                 2.23
7  CC(C)OC(=O)[C@H](C)N[P@](=O)(OC[C@H]1O[C@@H](n2ccc(=O)[nH]c2=O)[C@](Cl)(Br)[C@@H]1O)Oc1cccc2ccccc12                 1.91

Incoming: Please indicate log10(Drug metabolism) recorded for CC(C)C(=O)OC[C@H](C)NP(=O)(OC[C@H]1O[C@@H](n2ccc(=O)[nH]c2=O)[C@](Cl)(Br)[C@@H]1O)Oc1ccccc1 (some centres undefined)
Outgoing: 3.38

Incoming: Entry `CCOC(=O)[C@H](C)N[P@](=O)(OC[C@H]1O[C@@H](n2ccc(=O)[nH]c2=O)[C@](Cl)(Br)[C@@H]1O)Oc1ccccc1` needs its log10(Drug metabolism) filled in; supply it.
Outgoing: 1.95

Incoming: Give log10(Drug metabolism) for the following molecule: CC(C)OC(=O)C(C)(C)NP(=O)(OC[C@H]1O[C@@H](n2ccc(=O)[nH]c2=O)[C@](Cl)(Br)[C@@H]1O)Oc1ccccc1 (some centres undefined)
Outgoing: 2.20

Incoming: Supply recorded log10(Drug metabolism) for `COc1cccc(O[P@](=O)(N[C@@H](C)C(=O)OC(C)C)OC[C@H]2O[C@@H](n3ccc(=O)[nH]c3=O)[C@](Cl)(Br)[C@@H]2O)c1` here.
Outgoing: 1.54

Incoming: Give a short answer stating reported log10(Drug metabolism) for COCC(C)C(=O)OC[C@H](C)NP(=O)(OC[C@H]1O[C@@H](n2ccc(=O)[nH]c2=O)[C@](Cl)(Br)[C@@H]1O)Oc1ccccc1 (some centres undefined) .
Outgoing: 2.27

Incoming: Give a short answer stating reported log10(Drug metabolism) for COCC(=O)OC[C@H](C)NP(=O)(OC[C@H]1O[C@@H](n2ccc(=O)[nH]c2=O)[C@](Cl)(Br)[C@@H]1O)Oc1ccccc1 (some centres undefined) .
Outgoing: 2.08

----------
assay: Cytotoxicity against human HuH7 cells assessed as reduction in cell viability; assay type: cell-based, Huh-7; conditions: read-out: TD50 (the source's name)
Measured Endpoint: CC50 (µM)
API: value field is a number in µM; no unit string.

Incoming: Retrieve CC50 measured for `CC(C)OC(=O)[C@H](C)N[P@](=O)(OC[C@H]1O[C@@H](n2ccc(=O)[nH]c2=O)[C@](Cl)(Br)[C@@H]1O)Oc1ccccc1` and print it.
Outgoing: 62

----------
experiment: Prodrug conversion in dog liver assessed as (2S)-2-((((2R,3R,4R,5R)-4-bromo-4-chloro-5-(2,4-dioxo-3,4-dihydropyrimidin-1(2H)-yl)-3-hydroxytetrahydrofuran-2-yl)methoxy)(hydroxy)phosphorylamino)propanoic acid level at 5 mg/kg, po after 24 hrs; assay type: ADME, organism-based, Canis lupus familiaris; settings: in vivo
Measured Endpoint: Drug metabolism

                                   molecule  measured_endpoint        result
0  CC(C)OC(=O)[C@H](C)N[P@](=O)(OC[C@H]1O[C@@H](n2ccc(=O)[nH]c2=O)[C@](Cl)(Br)[C@@H]1O)Oc1ccccc1    Drug metabolism    0.006 µg/g
1  CCOC(=O)[C@H](C)NP(=O)(OC[C@H]1O[C@@H](n2ccc(=O)[nH]c2=O)[C@](Cl)(Br)[C@@H]1O)Oc1ccccc1 (stereo partly specified)    Drug metabolism    0.007 µg/g
2  CCOC(=O)C(C)(C)NP(=O)(OC[C@H]1O[C@@H](n2ccc(=O)[nH]c2=O)[C@](Cl)(Br)[C@@H]1O)Oc1ccccc1 (stereo partly specified)    Drug metabolism    0.065 µg/g
3  CC(C)OC(=O)[C@H](C)N[P@@](=O)(OC[C@H]1O[C@@H](n2ccc(=O)[nH]c2=O)[C@](Cl)(Br)[C@@H]1O)Oc1ccccc1    Drug metabolism  < 0.005 µg/g
4  CC(C)C(=O)OC[C@H](C)NP(=O)(OC[C@H]1O[C@@H](n2ccc(=O)[nH]c2=O)[C@](Cl)(Br)[C@@H]1O)Oc1ccccc1 (stereo partly specified)    Drug metabolism  < 0.005 µg/g

Now let's try a different one.
Incoming: In one line, give reported Drug metabolism of the entry `CC(C)OC(=O)[C@H](C)N[P@](=O)(OC[C@H]1O[C@@H](n2ccc(=O)[nH]c2=O)[C@](Cl)(Br)[C@@H]1OC(=O)[C@@H](N)C(C)C)Oc1ccccc1` .
Outgoing: 0.006 µg/g

All figures here come from ChEMBL document CHEMBL4627278.
